Biological target: Candida albicans (Cat. No. 10231, ATCC) whole cells (Candida albicans)
Experiment: C. albicans FACS, mean FITC fluorescence, Fab; assay background 100
I'd appreciate it if you could supply FACS (MF) values for the items below.
Please provide the amount together with its unit, number first.

If you can, please state the reported FACS (MF) value of 1H12 Fab (Fab, V domains shown) VH: EVQLVESGGGLVKAGGSLILSCGVSNFRISAHTMNWVRRVPGGGLEWVASISTSSTYRDYADAVKGRFTVSRDDLEDFVYLQMHKMRVEDTAIYYCARKGSDRLSDNDPFDAWGPGTVVTVSP VL: GVVMTQSPSTLSASVGDTITITCRASQSIETWLAWYQQKPGKAPKLLIYKASTLKTGVPSRFSGSGSGTEFTLTISGLQFDDFATYHCQHYMPYRASFGQGTRVEIKR . 2080 MF

Quick one: FACS (MF) of ID-3-RD5-P2H7 Fab (Fab, V domains shown) VH: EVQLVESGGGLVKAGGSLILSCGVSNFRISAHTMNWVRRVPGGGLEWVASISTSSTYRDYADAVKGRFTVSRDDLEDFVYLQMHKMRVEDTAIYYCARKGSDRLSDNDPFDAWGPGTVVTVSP VL: GVVMTQSPSTLSASVGDTITITCRASQSIETWLAWYQQKPGKAPKLLIYKASTLKTGVPSRFSGSGSGTEFTLTISGLQFDDFATYHCQHYRAHSGATFGQGTRVEIKR ? 10600 MF

Could you share which FACS (MF) value was measured for ID-3-RD5-P2E9 Fab (Fab, V domains shown) VH: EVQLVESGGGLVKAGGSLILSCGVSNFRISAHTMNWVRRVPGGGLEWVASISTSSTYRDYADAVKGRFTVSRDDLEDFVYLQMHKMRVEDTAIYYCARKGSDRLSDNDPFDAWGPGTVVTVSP VL: GVVMTQSPSTLSASVGDTITITCRASQSIETWLAWYQQKPGKAPKLLIYKASTLKTGVPSRFSGSGSGTEFTLTISGLQFDDFATYHCQHYTPHFGATFGQGTRVEIKR ? 8910 MF
